Data credit: PubChem BioAssay AID1159565

# reported IC50; entries follow
tested on: T. cruzi-infected H9C2 cardiomyocytes, high-content imaging; test: intracellular T. cruzi amastigote inhibition, imaging, H9C2 host cardiomyocytes, host toxicity (AID 1159565); conditions: measured here: amastigotes per cell;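 further: infected cells incubated 72 h after plating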

>  <molecule>
O=c1cc(NCCCNCc2cc(C(F)(F)F)cs2)[nH]c2ccccc12

>  <system-name>
T. cruzi-infected H9C2 cardiomyocytes, high-content imaging

>  <sign-qualifier>
=

>  <IC50 (nM)>
5000

$$$$
>  <molecule>
CC1=NN(C(=O)CCn2cnc([N+](=O)[O-])n2)C(O)(C(F)(F)F)C1 (centres undefined)

>  <system-name>
T. cruzi-infected H9C2 cardiomyocytes, high-content imaging

>  <sign-qualifier>
=

>  <IC50 (nM)>
1300

$$$$
>  <molecule>
CC(C)(C)Nc1nc(Nc2ccc3c(c2)CS(=O)(=O)C3)nc2[nH]ccc12

>  <system-name>
T. cruzi-infected H9C2 cardiomyocytes, high-content imaging

>  <sign-qualifier>
=

>  <IC50 (nM)>
20000

$$$$
>  <molecule>
Cc1c(CNC(=O)c2ccc(Cn3cc(Cl)c([N+](=O)[O-])n3)cc2)cnn1C

>  <system-name>
T. cruzi-infected H9C2 cardiomyocytes, high-content imaging

>  <sign-qualifier>
=

>  <IC50 (nM)>
790

$$$$
>  <molecule>
CC(=O)Nc1ccc(-c2cnc(N)c(-c3nc4ccc(F)cc4[nH]3)c2)cc1

>  <system-name>
T. cruzi-infected H9C2 cardiomyocytes, high-content imaging

>  <sign-qualifier>
>

>  <IC50 (nM)>
50000

$$$$
>  <molecule>
O=C(CN(Cc1ccccn1)Cc1ccccn1)NCc1csc(-c2cccs2)n1

>  <system-name>
T. cruzi-infected H9C2 cardiomyocytes, high-content imaging

>  <sign-qualifier>
=

>  <IC50 (nM)>
2500

$$$$
>  <molecule>
CCCCn1c(=O)c2c(N)onc2n(CCCC)c1=O

>  <system-name>
T. cruzi-infected H9C2 cardiomyocytes, high-content imaging

>  <sign-qualifier>
=

>  <IC50 (nM)>
25000

$$$$
>  <molecule>
COc1ccc(C(=O)N2CCC(Nc3cccnc3)C2)c(OC)n1 (centres undefined)

>  <system-name>
T. cruzi-infected H9C2 cardiomyocytes, high-content imaging

>  <sign-qualifier>
=

>  <IC50 (nM)>
790

$$$$
>  <molecule>
Cn1nccc1NC(=O)Cn1ccc(-c2ccncc2)n1

>  <system-name>
T. cruzi-infected H9C2 cardiomyocytes, high-content imaging

>  <sign-qualifier>
>

>  <IC50 (nM)>
50000

$$$$
>  <molecule>
O=C1COC(c2ccccc2)(c2ccccc2)CN1C1CCN(Cc2ccc(-n3ccnc3)cc2)CC1

>  <system-name>
T. cruzi-infected H9C2 cardiomyocytes, high-content imaging

>  <sign-qualifier>
=

>  <IC50 (nM)>
500

$$$$
>  <molecule>
CN(C)c1ccc(N)cc1CN(CC1CCCO1)S(C)(=O)=O (centres undefined)

>  <system-name>
T. cruzi-infected H9C2 cardiomyocytes, high-content imaging

>  <sign-qualifier>
>

>  <IC50 (nM)>
50000

$$$$
>  <molecule>
COc1ccc(S(=O)(=O)NCc2ccc(-c3ccc(CN(C)CCO)cc3)cc2)cc1

>  <system-name>
T. cruzi-infected H9C2 cardiomyocytes, high-content imaging

>  <sign-qualifier>
=

>  <IC50 (nM)>
1300

$$$$
>  <molecule>
N#CN1CC[C@@H](NC(=O)Nc2ccccc2Oc2ccccc2)C1

>  <system-name>
T. cruzi-infected H9C2 cardiomyocytes, high-content imaging

>  <sign-qualifier>
=

>  <IC50 (nM)>
5000

$$$$
>  <molecule>
O=S(=O)(c1ccccc1C(F)(F)F)N1CCN(Cc2ccc(-n3ccnc3)cc2)CC1

>  <system-name>
T. cruzi-infected H9C2 cardiomyocytes, high-content imaging

>  <sign-qualifier>
=

>  <IC50 (nM)>
200

$$$$
>  <molecule>
COc1cccc2sc(CN(C)C(=O)C3CNCCN3c3ccc(F)cc3)c(C)c12 (centres undefined)

>  <system-name>
T. cruzi-infected H9C2 cardiomyocytes, high-content imaging

>  <sign-qualifier>
=

>  <IC50 (nM)>
160

$$$$
>  <molecule>
CC(=O)Nc1ccc(-c2noc(CC3CCCN(Cc4cccc(F)c4C)C3)n2)cc1 (centres undefined)

>  <system-name>
T. cruzi-infected H9C2 cardiomyocytes, high-content imaging

>  <sign-qualifier>
=

>  <IC50 (nM)>
1300

$$$$
>  <molecule>
Cc1ccccc1CNc1cc(C2CC2)nc(-c2nccn2C)n1

>  <system-name>
T. cruzi-infected H9C2 cardiomyocytes, high-content imaging

>  <sign-qualifier>
=

>  <IC50 (nM)>
790

$$$$
>  <molecule>
O=C(Cc1ccccc1)Nc1[nH]nc2sc(C(=O)NC3CCCC3)cc12

>  <system-name>
T. cruzi-infected H9C2 cardiomyocytes, high-content imaging

>  <sign-qualifier>
=

>  <IC50 (nM)>
6300

$$$$
>  <molecule>
O=S(=O)(NCC(c1cccnc1)N1CCN(c2ccccc2F)CC1)c1ccc(F)cc1 (centres undefined)

>  <system-name>
T. cruzi-infected H9C2 cardiomyocytes, high-content imaging

>  <sign-qualifier>
=

>  <IC50 (nM)>
200

$$$$
>  <molecule>
CS(=O)(=O)c1ccc(Nc2nccc(Nc3n[nH]c4ccc(F)cc34)n2)c(F)c1

>  <system-name>
T. cruzi-infected H9C2 cardiomyocytes, high-content imaging

>  <sign-qualifier>
=

>  <IC50 (nM)>
4000

$$$$
>  <molecule>
N#Cc1cc(N2CCCC2=O)ccc1Sc1ccccc1CO

>  <system-name>
T. cruzi-infected H9C2 cardiomyocytes, high-content imaging

>  <sign-qualifier>
=

>  <IC50 (nM)>
250

$$$$
>  <molecule>
CCS(=O)(=O)c1cccc(C(=O)Nc2nc(-c3ccccn3)cs2)c1

>  <system-name>
T. cruzi-infected H9C2 cardiomyocytes, high-content imaging

>  <sign-qualifier>
=

>  <IC50 (nM)>
1600

$$$$
>  <molecule>
CS(=O)(=O)N1CCC(Nc2ncc(Br)c(Nc3cccc(F)c3C(N)=O)n2)CC1

>  <system-name>
T. cruzi-infected H9C2 cardiomyocytes, high-content imaging

>  <sign-qualifier>
=

>  <IC50 (nM)>
400

$$$$
>  <molecule>
Fc1ccc(OC2CC(NCc3cccc4cn[nH]c34)C2)cc1C(F)(F)F (centres undefined)

>  <system-name>
T. cruzi-infected H9C2 cardiomyocytes, high-content imaging

>  <sign-qualifier>
=

>  <IC50 (nM)>
160

$$$$
>  <molecule>
CC(C)(C)c1cc(NC2CC2)nc(-c2ccccn2)n1

>  <system-name>
T. cruzi-infected H9C2 cardiomyocytes, high-content imaging

>  <sign-qualifier>
=

>  <IC50 (nM)>
1300

$$$$
>  <molecule>
Cc1nc2c(-c3ncn[nH]3)cc(NC(=O)Cc3ccccc3)cn2c1C

>  <system-name>
T. cruzi-infected H9C2 cardiomyocytes, high-content imaging

>  <sign-qualifier>
=

>  <IC50 (nM)>
790

$$$$
>  <molecule>
NCc1ccc2c(Cl)cc(Cl)c(O)c2n1

>  <system-name>
T. cruzi-infected H9C2 cardiomyocytes, high-content imaging

>  <sign-qualifier>
=

>  <IC50 (nM)>
1300

$$$$
>  <molecule>
CC1CCCCN1C(=O)NCCc1coc(-c2ccc(F)cc2)n1 (centres undefined)

>  <system-name>
T. cruzi-infected H9C2 cardiomyocytes, high-content imaging

>  <sign-qualifier>
=

>  <IC50 (nM)>
320

$$$$
>  <molecule>
COc1ccc(NS(=O)(=O)c2cccc(NC(=O)c3cc(F)cc(F)c3)c2)cc1

>  <system-name>
T. cruzi-infected H9C2 cardiomyocytes, high-content imaging

>  <sign-qualifier>
=

>  <IC50 (nM)>
500

$$$$
>  <molecule>
NCc1csc(Nc2cc(Oc3ccccc3)ncn2)n1

>  <system-name>
T. cruzi-infected H9C2 cardiomyocytes, high-content imaging

>  <sign-qualifier>
=

>  <IC50 (nM)>
32000

$$$$
>  <molecule>
CC(=O)NC1(c2ccccc2)CCN(CC(=O)Nc2ccccc2-c2ccccc2)CC1

>  <system-name>
T. cruzi-infected H9C2 cardiomyocytes, high-content imaging

>  <sign-qualifier>
=

>  <IC50 (nM)>
1600

$$$$
>  <molecule>
Cn1nc(C(=O)N2CCc3ccccc32)c2c1CCS(=O)(=O)C2

>  <system-name>
T. cruzi-infected H9C2 cardiomyocytes, high-content imaging

>  <sign-qualifier>
=

>  <IC50 (nM)>
7900

$$$$
>  <molecule>
N#Cc1cnc(Nc2cccc(CCN3CCOCC3)c2)nc1Nc1ccccc1C(N)=O

>  <system-name>
T. cruzi-infected H9C2 cardiomyocytes, high-content imaging

>  <sign-qualifier>
=

>  <IC50 (nM)>
2000

$$$$
>  <molecule>
CCOc1ccc(CC(=O)N2c3ccccc3CC2C(=O)NC)cc1 (centres undefined)

>  <system-name>
T. cruzi-infected H9C2 cardiomyocytes, high-content imaging

>  <sign-qualifier>
>

>  <IC50 (nM)>
50000

$$$$
>  <molecule>
COc1ccccc1-c1c(C)[nH]c2nc(N)nc(C)c12

>  <system-name>
T. cruzi-infected H9C2 cardiomyocytes, high-content imaging

>  <sign-qualifier>
=

>  <IC50 (nM)>
130

$$$$
>  <molecule>
Cc1cc(N(C)C)nc(Nc2ccccc2C)n1

>  <system-name>
T. cruzi-infected H9C2 cardiomyocytes, high-content imaging

>  <sign-qualifier>
=

>  <IC50 (nM)>
500

$$$$
>  <molecule>
CS(=O)(=O)NC1CCC(Oc2cc3cnccc3cc2-c2ccsc2)CC1 (centres undefined)

>  <system-name>
T. cruzi-infected H9C2 cardiomyocytes, high-content imaging

>  <sign-qualifier>
=

>  <IC50 (nM)>
100

$$$$
>  <molecule>
O=C(CN(Cc1ccccn1)Cc1ccccn1)NCc1ccc(-c2csnn2)cc1

>  <system-name>
T. cruzi-infected H9C2 cardiomyocytes, high-content imaging

>  <sign-qualifier>
=

>  <IC50 (nM)>
7900

$$$$
>  <molecule>
CN(C)S(=O)(=O)c1ccc(Cl)c(C(=O)Nc2nc(-c3ccccn3)cs2)c1

>  <system-name>
T. cruzi-infected H9C2 cardiomyocytes, high-content imaging

>  <sign-qualifier>
=

>  <IC50 (nM)>
1300

$$$$
>  <molecule>
O=[N+]([O-])c1cccc(Nc2cncc(-c3ccccc3CO)c2)c1

>  <system-name>
T. cruzi-infected H9C2 cardiomyocytes, high-content imaging

>  <sign-qualifier>
=

>  <IC50 (nM)>
250

$$$$
>  <molecule>
COc1cc(OC)cc(C(NS(=O)(=O)c2ccc(Cl)c(C(F)(F)F)c2)c2nccn2C)c1 (centres undefined)

>  <system-name>
T. cruzi-infected H9C2 cardiomyocytes, high-content imaging

>  <sign-qualifier>
=

>  <IC50 (nM)>
3200

$$$$
>  <molecule>
O=c1oc2ccccc2n1C1CCN(Cc2ccccc2-c2cccnc2)CC1

>  <system-name>
T. cruzi-infected H9C2 cardiomyocytes, high-content imaging

>  <sign-qualifier>
=

>  <IC50 (nM)>
400

$$$$
>  <molecule>
COc1ccc(CN2CCCCC2c2nc(-c3cccnc3)no2)cc1 (centres undefined)

>  <system-name>
T. cruzi-infected H9C2 cardiomyocytes, high-content imaging

>  <sign-qualifier>
=

>  <IC50 (nM)>
630

$$$$
>  <molecule>
O=C(Nc1ccc(C(F)(F)F)cc1)NC1(C(=O)NCc2ccco2)CCCCC1

>  <system-name>
T. cruzi-infected H9C2 cardiomyocytes, high-content imaging

>  <sign-qualifier>
>

>  <IC50 (nM)>
50000

$$$$
